# System: Radical scavenging activity
# PROCEDURE DETAILS: Antioxidant activity assessed as DPPH radical scavenging activity at 1 ug
# Assay type: functional
Active and inactive are the calls of the source. The rule behind the calls is not given here.
Pick from active, inactive when you respond.

Check the results log: what was the call for COc1cc(O)c2c(=O)c(-c3ccc(O)cc3O)coc2c1 ? inactive

Check the results log: what was the call for COc1cc(-c2cc(=O)c3c(O)cc(O)cc3o2)cc(OC)c1O ? active

Check the results log: what was the call for CC1(C)C=Cc2c(cc3occ(-c4ccc(O)cc4O)c(=O)c3c2O)O1 ? active

Check the results log: what was the call for COc1cc(O)c2c(=O)c(-c3ccc(O)cc3OC)coc2c1 ? inactive

Check the results log: what was the call for COc1cc(O)c2c(=O)c(-c3ccc(O)c(C)c3OC)coc2c1 ? inactive

Check the results log: what was the call for CC1(C)C=Cc2c(cc(O)c3c(=O)c(-c4ccc(O)cc4O)coc23)O1 ? active

Check the results log: what was the call for C=C(C)C(O)Cc1c(O)cc(O)c2c1OC(c1ccc(O)cc1)CC2=O (stereo not drawn) ? active

Check the results log: what was the call for COc1cc(O)c2c(=O)c(-c3ccc(O)c(C)c3O)coc2c1 ? active

----------
# Test system: Candida albicans
# PROCEDURE DETAILS: Antifungal activity against Candida albicans at 5 ug after 3 days by MTT assay
# Type: functional, organism-based
Activity calls are given as the source filed them. The calls are words filed in the database; no cut-off is given here.
Pick from YES = active, NO = inactive when you respond.

Check the results log: what was the call for CC1(C)C=Cc2c(cc(O)c3c(=O)c(-c4ccc(O)cc4O)coc23)O1 ? YES

Check the results log: what was the call for COc1cc(O)c2c(=O)c(-c3ccc(O)c(C)c3O)coc2c1 ? YES

Check the results log: what was the call for COc1cc(-c2cc(=O)c3c(O)cc(O)cc3o2)cc(OC)c1O ? NO

Check the results log: what was the call for COc1cc(O)c2c(=O)c(-c3ccc(O)cc3O)coc2c1 ? NO

Check the results log: what was the call for COc1cc(O)c2c(=O)c(-c3ccc(O)cc3OC)coc2c1 ? NO

Check the results log: what was the call for COc1cc(O)c2c(=O)c(-c3ccc(O)c(C)c3OC)coc2c1 ? NO

Check the results log: what was the call for CC1(C)C=Cc2c(cc3occ(-c4ccc(O)cc4O)c(=O)c3c2O)O1 ? YES

Check the results log: what was the call for C=C(C)C(O)Cc1c(O)cc(O)c2c1OC(c1ccc(O)cc1)CC2=O (stereo not drawn) ? YES

----------
# System: Cladosporium cucumerinum
# PROCEDURE DETAILS: Antifungal activity against Cladosporium cucumerinum at 5 ug after 3 days by MTT assay
# Assay type: functional, organism-based
Activity calls are given as the source filed them. No cut-off for these calls is given here.
OUTCOME MEASURE: Activity

Sample records with Activity:
- COc1cc(O)c2c(=O)c(-c3ccc(O)cc3OC)coc2c1: inactive
- COc1cc(O)c2c(=O)c(-c3ccc(O)c(C)c3OC)coc2c1: Active
- CC1(C)C=Cc2c(cc(O)c3c(=O)c(-c4ccc(O)cc4O)coc23)O1: Active
- COc1cc(O)c2c(=O)c(-c3ccc(O)c(C)c3O)coc2c1: inactive

Report Activity, nothing else, for this compound: COc1cc(O)c2c(=O)c(-c3ccc(O)cc3O)coc2c1 Active

Report Activity, nothing else, for this compound: CC1(C)C=Cc2c(cc3occ(-c4ccc(O)cc4O)c(=O)c3c2O)O1 Active

Report Activity, nothing else, for this compound: C=C(C)C(O)Cc1c(O)cc(O)c2c1OC(c1ccc(O)cc1)CC2=O (stereo not drawn) Active

Report Activity, nothing else, for this compound: COc1cc(-c2cc(=O)c3c(O)cc(O)cc3o2)cc(OC)c1O inactive
